B1: r11_951_TrROS_Hall (parent)
chain: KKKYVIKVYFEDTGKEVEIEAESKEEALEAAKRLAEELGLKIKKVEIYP

# Variants of: B1
# ASSAY_NOTES: folding stability dG (cDNA display proteolysis); higher = more stable
# MEASUREMENT_CONDITIONS: PBS, room temperature
folding stability dG listing for selected variants.
Give a bare numeral; the unit kcal/mol is implied.

// returns reported folding stability dG for input KKKYVIKVYFEDTGKEVEITAESKEEALEAAKRLAEELGLKIKKVEIYP [E20T]
4.4

// returns reported folding stability dG for input KKKYVIKVYFEDTGKEVEIEAESKEEALEAAKRLAEELGLKGKKVEIYP [I42G]
2.51

// returns reported folding stability dG for input KKKYVIKGYFEDTGKEVEIEAESKEEALEAAKRLAEELGLKIKKVEIYP [V8G]
2.51

// returns reported folding stability dG for input KKKYVIKVYFEDTGKEWEIEAESKEEALEAAKRLAEELGLKIKKVEIYP [V17W]
4.53

// returns reported folding stability dG for input KKKYVIKVYPEDTGKEVEIEAESKEEALEAAKRLAEELGLKIKKVEIYP [F10P]
2.07

// returns reported folding stability dG for input KKKYVIKVYFEDTGKEVEIEAESKEEHLEAAKRLAEELGLKIKKVEIYP [A27H]
2.78

// returns reported folding stability dG for input KKKYVIKVYFEDTGKEVEIEAESSEEALEAAKRLAEELGLKIKKVEIYP [K24S]
4.29

// returns reported folding stability dG for input KKKYVIKVYFEDTGKEVEIKAESKEEALEAAKRLAEELGLKIKKVEIYP [E20K]
4.03
